# target.or.test.system: Bcl-2-related protein A1 (Mus musculus) (UniProt Q07440)
# Sequence (Q07440 whole entry, looked up): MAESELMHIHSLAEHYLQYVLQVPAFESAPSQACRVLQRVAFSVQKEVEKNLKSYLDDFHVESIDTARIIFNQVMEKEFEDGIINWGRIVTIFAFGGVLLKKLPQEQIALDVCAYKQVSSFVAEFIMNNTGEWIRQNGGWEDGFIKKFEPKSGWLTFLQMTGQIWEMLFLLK
# assay: displacement of Bid BH3 peptide from Bfl-1 – biochemical, fluorescence polarization, FITC-Bid, mouse, primary screen (AID 432)
# experimental.conditions: at 20 µM, hits give high values
About 15 (0.02%) of roughly 64,000 compounds were called active. The list is a sample of the results. Measured potencies and affinities stand elsewhere.

{"molecule": "Cc1csc(NC(=O)CCn2c(=O)oc3ccccc32)n1", "displacement": "2.1% (inactive)"}
{"molecule": "N#CC1=C(N)OC2=C(C(=O)CCC2)C1c1ccsc1 (stereo not drawn)", "displacement": "-2.3% (inactive)"}
{"molecule": "CC1=CC(C)(C)N2C(=O)C3(C(C#N)=C(N)Oc4cc(O)ccc43)c3cccc1c32 (stereo not drawn)", "displacement": "-2.9% (inactive)"}
{"molecule": "CCOC(=O)N1CCC(NC(=O)CN2C(=O)CSc3ncccc32)CC1", "displacement": "3.4% (inactive)"}
{"molecule": "CC1CC(C)CN(Cc2nc3c(c(=O)n(C)c(=O)n3C)n2CCN2CCOCC2)C1 (stereo not drawn)", "displacement": "29.2% (inactive)"}
{"molecule": "O=C(NC(NCCCN1CCOCC1)(C(F)(F)F)C(F)(F)F)C1CCCCC1", "displacement": "-1.1% (inactive)"}
{"molecule": "COC(=O)C1=C(N)Oc2cc(C)n(CC3CCCO3)c(=O)c2C1c1ccc(Cl)cc1 (stereo not drawn)", "displacement": "-2.1% (inactive)"}
{"molecule": "COc1cccc(CNCC(=O)N2C(C)CCCC2C)c1 (stereo not drawn)", "displacement": "-0.5% (inactive)"}
{"molecule": "CCOc1cc2c(cc1OCC)C(C(=O)O)C(c1cc(Br)c(O)c(OC)c1)N(C)C2=O (stereo not drawn)", "displacement": "6.3% (inactive)"}
{"molecule": "CCOC(=O)/C(C#N)=C(\\N)C(C)C(=O)Nc1ccccn1 (stereo not drawn)", "displacement": "-3.2% (inactive)"}
{"molecule": "CCCN1C(=O)CC(c2ccco2)Sc2ccccc21 (stereo not drawn)", "displacement": "-8.4% (inactive)"}
{"molecule": "CC(=O)Nc1ccc(NCC(O)COc2ccccc2)cc1 (stereo not drawn)", "displacement": "9.6% (inactive)"}
{"molecule": "COc1ccc(S(=O)(=O)n2nc(-c3cc(OC)c(OC)c(OC)c3)cc2N)cc1OC", "displacement": "3.4% (inactive)"}
{"molecule": "CCn1c(SC(C)C(=O)O)nc2sc3c(c2c1=O)CCC3 (stereo not drawn)", "displacement": "22.5% (inactive)"}
{"molecule": "CCOC(=O)N1CCC(c2cc(=O)n3[nH]c(-c4ccccc4)cc3n2)CC1", "displacement": "5.1% (inactive)"}
{"molecule": "COc1ccc(C2CCN(Cc3cccnc3)CC2O)cc1 (stereo not drawn)", "displacement": "-8.7% (inactive)"}
{"molecule": "CCSc1nnc(NC(=O)C(C)(C(F)(F)F)C(F)(F)F)s1", "displacement": "-5.7% (inactive)"}
{"molecule": "CCCn1nnc(NCc2ccc(OCc3cccs3)c(OC)c2)n1", "displacement": "1.2% (inactive)"}
